# Assay remarks: Particle size by laser diffraction
# Assay type: physicochemical
# Study conditions: spironolactone solid prior to composition manufacture
Recorded metric: particle size D(v, 0.5)

Compound | Assay result
CC(=O)S[C@@H]1CC2=CC(=O)CC[C@]2(C)[C@H]2CC[C@@]3(C)[C@@H](CC[C@@]34CCC(=O)O4)[C@H]12 [unmicronized spironolactone, spironolactone] | 18.3 µm

---

# Assay remarks: Particle size by laser diffraction
# Type: physicochemical
# Study conditions: spironolactone solid prior to composition manufacture

Compound | particle size D(v, 0.9)
CC(=O)S[C@@H]1CC2=CC(=O)CC[C@]2(C)[C@H]2CC[C@@]3(C)[C@@H](CC[C@@]34CCC(=O)O4)[C@H]12 [unmicronized spironolactone, spironolactone] | 35.5 µm
